Consider the following compounds; for each one, report its EC50.
Target: UniProt:P47900
Sequence (P47900 whole entry): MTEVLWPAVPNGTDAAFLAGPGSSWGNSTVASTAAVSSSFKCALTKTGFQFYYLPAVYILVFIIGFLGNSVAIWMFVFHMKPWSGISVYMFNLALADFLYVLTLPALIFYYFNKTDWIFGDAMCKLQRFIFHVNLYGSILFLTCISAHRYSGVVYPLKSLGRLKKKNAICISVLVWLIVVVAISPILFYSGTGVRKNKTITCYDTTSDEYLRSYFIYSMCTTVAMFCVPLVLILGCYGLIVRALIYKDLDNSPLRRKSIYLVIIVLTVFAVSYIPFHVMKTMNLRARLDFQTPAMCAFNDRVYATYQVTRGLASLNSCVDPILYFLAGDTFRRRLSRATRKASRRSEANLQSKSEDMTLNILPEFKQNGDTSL
Experiment: Agonist activity at GFP-tagged human P2Y1R transfected in human 1321N1 cells assessed as increase in intracellular Ca2+ level by fura 2/AM probe-based fluorescence assay
Give the number; nM is assumed, so skip it.

Given item CSc1nc(N)c2ncn([C@@H]3O[C@H](COP(=O)(S)OP(=O)(O)O)[C@@H](O)[C@H]3O)c2n1 (stereo in doubt; 7B) , the value recorded as its EC50 is 17

Given item Nc1nc(Cl)nc2c1ncn2[C@@H]1O[C@H](COP(=O)(S)OP(=O)(O)OP(=O)(O)O)[C@@H](O)[C@H]1O (stereo in doubt; 9B) , the value recorded as its EC50 is 880

Given item Nc1ncnc2c1ncn2[C@@H]1O[C@H](COP(=O)(S)OP(=O)(O)O)[C@@H](O)[C@H]1O (stereo in doubt; 6B) , the value recorded as its EC50 is 130

Given item Nc1nc(Cl)nc2c1ncn2[C@@H]1O[C@H](COP(=O)(O)OP(=O)(O)S)[C@@H](O)[C@H]1O (some centres undefined) , the value recorded as its EC50 is 90
